Please go through the items and note down their pest or weed control at 125 g/ha.
# Tested on: POLCO Polygonum convolvulus
# experimental details: Post-emergence crop and weed test (Example 15)
# Format: in vivo
# assay context: Fallopia convolvulus, 360 h, 125 g/ha, after 15 days, read-out: Percentage damage POLCO
Give just the number in %; leave the unit off.

Return reported pest or weed control at 125 g/ha; argument: C=Cc1c(NCc2ccco2)nc(-c2ccc(Cl)c(OC)c2F)nc1C(=O)OC
70

Return reported pest or weed control at 125 g/ha; argument: C=Cc1c(N)nc(-c2ccc(Cl)c(F)c2)nc1C(=O)OC
70

Return reported pest or weed control at 125 g/ha; argument: C=Cc1c(NCc2ccco2)nc(C2CC2)nc1C(=O)OC [Ref. Ex. F, reference compound]
60

Return reported pest or weed control at 125 g/ha; argument: C/C=C/c1c(N)nc(C2CC2)nc1C(=O)OC [Ref. Ex. D, reference compound]
20

Return reported pest or weed control at 125 g/ha; argument: C/C=C/c1c(N)nc(-c2ccc(Cl)c(OC)c2F)nc1C(=O)OC
90

Return reported pest or weed control at 125 g/ha; argument: COC(=O)c1nc(-c2ccc(Cl)c(OC)c2F)nc(NCc2ccco2)c1Cl [Ref. Ex. E, reference compound]
90

----------
# Test system: VERPE Veronica persica
# experimental details: Post-emergence crop and weed test (Example 15)
# Format: in vivo
# assay context: 360 h, 8 g/ha, after 15 days, read-out: Percentage damage VERPE
Please go through the items and note down their pest or weed control at 8 g/ha.
Answer with the number, then the unit.

Return reported pest or weed control at 8 g/ha; argument: C/C=C\c1c(N)nc(-c2ccc(Cl)c(OC)c2F)nc1C(=O)OC [Compound 4]
80%

Return reported pest or weed control at 8 g/ha; argument: COC(=O)c1nc(-c2ccc(Cl)c(OC)c2F)nc(N)c1Cl [Ref. Ex. B, reference compound]
80%

Return reported pest or weed control at 8 g/ha; argument: C=Cc1c(N)nc(C2CC2)nc1C(=O)OC [Ref. Ex. C, reference compound]
50%

Return reported pest or weed control at 8 g/ha; argument: C=Cc1c(N)nc(-c2ccc(Cl)c(OC)c2F)nc1C(=O)O [Compound 11]
80%

----------
# Tested on: SIDSP Sida spinosa
# experimental details: Post-emergence crop and weed test (Example 15)
# Assay type: in vivo
# assay context: 360 h, 30 g/ha, after 15 days, read-out: Percentage damage SIDSP
# Procedure: Seeds of crop and representative weed species were sown in standard soil in pots. After cultivation for 14 days under controlled conditions in a glasshouse (at 22/16° C., day/night; 16 hours light; 65% humidity), the plants were sprayed. […] The test plants were then grown on under controlled conditions in a glasshouse (at 22/16° C., day/night; 16 hours light; 65% humidity) and watered twice daily. After 15 days the test was evaluated (100 =total damage to plant; 0 =no damage to plant).
Please go through the items and note down their pest or weed control at 30 g/ha.
Give just the number in %; leave the unit off.

Return reported pest or weed control at 30 g/ha; argument: C=Cc1c(N)nc(-c2ccc(Cl)c(N(C)C)c2F)nc1C(=O)OC [Compound 1]
60

Return reported pest or weed control at 30 g/ha; argument: C/C=C\c1c(N)nc(-c2ccc(Cl)c(N(C)C)c2F)nc1C(=O)OC [Compound 5]
0

Return reported pest or weed control at 30 g/ha; argument: COC(=O)c1nc(-c2ccc(Cl)c(N(C)C)c2F)nc(N)c1Cl [Ref. Ex. A, reference compound]
80

Return reported pest or weed control at 30 g/ha; argument: C=Cc1c(NCc2ccco2)nc(-c2ccc(Cl)cc2)nc1C(=O)OC [Compound 7]
0
